// reported LD50 per item
# MEASUREMENT_NOTES: Acute toxicity, single oral administration to mice
# RECORDED_CONDITIONS: mouse, in vivo, p.o.
RESULT_TYPE: LD50

# MOLECULE, RESULT_TYPE, RESULT
rows = [
    ("Cc1n(N=Cc2ccc(N(C)C)cc2)cc[n+]1N=Cc1ccc(N(C)C)cc1 [drawing 12]", "LD50", "80 to 156 mg/kg"),
    ("CCc1n(N=Cc2ccc(N(C)C)c3ccccc23)cc[n+]1N=Cc1ccc(N(C)C)c2ccccc12.[Cl-]", "LD50", "312 to 625 mg/kg"),
    ("CCCc1n(N=Cc2ccc(N(C)C)cc2)cc[n+]1N=Cc1ccc(N(C)C)cc1.[Cl-]", "LD50", "62.5 to 125 mg/kg"),
    ("CCc1n(N=Cc2ccc(N(C)C)cc2)cc[n+]1N=Cc1ccc(N(C)C)cc1.[Cl-]", "LD50", "62.5 to 125 mg/kg"),
]
